Values compiled from patent EP1247803A2.

Listing: Met Kinase % Inhibition of selected compounds
# Tested on: MET
# Assay Method Text: MET biochemical kinase assay
# Set-up: species or system human; concentration or dose not given beside the values
# Excerpt: A met biochemical kinase assay may be performed for met generally as described above for other kinases by substituting that or the other kinases. […] Incorporation of phosphate into the captured receptors is detected with an anti-phosphotyrosine antibody conjugate with horse radish peroxidase using TMB as a substrate for colorimetric detection.

# Smiles Text, Met Kinase % Inhibition, %
records = [
    ("O=C1Nc2ccc(S(=O)(=O)Nc3ccc(C(F)(F)F)cc3)cc2C1=Cc1cc(O)c2c(c1O)CCCC2", 84.0),
    ("CCOC(=O)c1cc(C=C2C(=O)Nc3ccc(S(=O)(=O)N4CCOCC4)cc32)oc1C", 42.5),
    ("O=C1Nc2ccc(I)cc2C1=Cc1cc(Cl)cc(Br)c1O", 87.1),
    ("Cc1c(Br)ccc2c1C(=Cc1c(F)cccc1C(F)(F)F)C(=O)N2", 31.6),
    ("O=C1Nc2ccc(S(=O)(=O)N3CCOCC3)cc2C1=Cc1cc(Cl)cc(Br)c1O", 92.0),
    ("COc1ccc(C=C2C(=O)Nc3ccc(I)cc32)c2ccccc12", 57.3),
]

----------
# Assayed Target: EGFR (Homo sapiens, UniProt P00533)
# Construct: Add 7 ug A431 cell lysate per well (EGFR source); endogenous in cells; host or cells: A431
# Sequence (P00533 25-1210): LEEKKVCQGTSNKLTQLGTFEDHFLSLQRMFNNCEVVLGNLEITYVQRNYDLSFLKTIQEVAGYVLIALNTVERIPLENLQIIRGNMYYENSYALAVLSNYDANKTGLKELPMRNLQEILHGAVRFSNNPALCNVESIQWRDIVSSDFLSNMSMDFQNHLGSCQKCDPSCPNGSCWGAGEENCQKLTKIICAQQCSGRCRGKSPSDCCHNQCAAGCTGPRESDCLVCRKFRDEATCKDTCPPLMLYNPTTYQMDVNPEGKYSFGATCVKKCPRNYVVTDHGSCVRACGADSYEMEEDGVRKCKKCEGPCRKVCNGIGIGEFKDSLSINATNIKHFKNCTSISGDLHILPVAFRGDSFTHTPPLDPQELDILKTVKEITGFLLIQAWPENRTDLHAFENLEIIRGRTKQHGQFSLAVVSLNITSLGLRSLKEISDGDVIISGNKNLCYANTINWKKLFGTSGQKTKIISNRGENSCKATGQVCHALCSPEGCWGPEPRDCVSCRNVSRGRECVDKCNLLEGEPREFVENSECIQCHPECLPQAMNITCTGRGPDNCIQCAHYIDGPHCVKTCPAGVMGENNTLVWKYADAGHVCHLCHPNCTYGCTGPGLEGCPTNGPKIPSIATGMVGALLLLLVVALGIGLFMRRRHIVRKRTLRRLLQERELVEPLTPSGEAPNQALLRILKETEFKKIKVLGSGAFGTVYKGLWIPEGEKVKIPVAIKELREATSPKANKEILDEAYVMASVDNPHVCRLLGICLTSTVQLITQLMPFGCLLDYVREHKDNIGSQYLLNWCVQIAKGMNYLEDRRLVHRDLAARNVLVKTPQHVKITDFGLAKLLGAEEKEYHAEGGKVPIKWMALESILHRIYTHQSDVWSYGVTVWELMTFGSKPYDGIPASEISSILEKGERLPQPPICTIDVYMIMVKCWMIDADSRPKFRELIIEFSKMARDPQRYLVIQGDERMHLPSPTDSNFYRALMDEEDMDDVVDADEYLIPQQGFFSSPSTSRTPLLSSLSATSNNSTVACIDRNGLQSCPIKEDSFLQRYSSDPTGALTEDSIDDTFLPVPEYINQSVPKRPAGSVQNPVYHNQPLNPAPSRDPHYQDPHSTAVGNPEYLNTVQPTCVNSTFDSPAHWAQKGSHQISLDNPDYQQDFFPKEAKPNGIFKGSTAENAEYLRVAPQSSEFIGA
# Assay Method Text: EGFR ELISA assay (in vitro kinase activity, EGFR captured from A431 cell lysate)
# Format: biochemical
# Parameters: concentration or dose not given beside the values
Attribute Measured: Biochem EGFR %Inhibition (%)

# Smiles Text, Assayed Target, Attribute Measured, Value Observed
rows = [
    ("O=C1Nc2ccc(I)cc2C1=Cc1ccc(F)cc1C(F)(F)F", "EGFR (Homo sapiens, UniProt P00533)", "Biochem EGFR %Inhibition", -23.9),
    ("Cc1cc(O)cc(O)c1C=C1C(=O)Nc2ccc(S(=O)(=O)N3CCOCC3)cc21", "EGFR (Homo sapiens, UniProt P00533)", "Biochem EGFR %Inhibition", -39.6),
    ("Cc1cc(C=C2C(=O)Nc3ccc(CCCl)cc32)oc1C", "EGFR (Homo sapiens, UniProt P00533)", "Biochem EGFR %Inhibition", 26.2),
    ("CNS(=O)(=O)c1ccc2c(c1)C(=Cc1cc(OC)ccc1O)C(=O)N2", "EGFR (Homo sapiens, UniProt P00533)", "Biochem EGFR %Inhibition", -10.2),
    ("CNS(=O)(=O)c1ccc2c(c1)C(=Cc1cc(OC)cc(Br)c1O)C(=O)N2", "EGFR (Homo sapiens, UniProt P00533)", "Biochem EGFR %Inhibition", 61.9),
    ("CCn1c2ccccc2c2cc(C=C3C(=O)Nc4ccc(I)cc43)ccc21", "EGFR (Homo sapiens, UniProt P00533)", "Biochem EGFR %Inhibition", 15.5),
    ("Cn1cccc1C=C1C(=O)Nc2c(Br)cc(Br)cc21", "EGFR (Homo sapiens, UniProt P00533)", "Biochem EGFR %Inhibition", 29.0),
    ("O=C1Nc2ccc(CCCl)cc2C1=Cc1coc2ccc([N+](=O)[O-])cc2c1=O", "EGFR (Homo sapiens, UniProt P00533)", "Biochem EGFR %Inhibition", 0.7),
    ("CC(=O)n1cc(C=C2C(=O)Nc3ccc(Br)c(C)c32)c2ccccc21", "EGFR (Homo sapiens, UniProt P00533)", "Biochem EGFR %Inhibition", -9.8),
    ("CNS(=O)(=O)c1ccc2c(c1)C(=Cc1cc(OC)c(OC)c(OC)c1)C(=O)N2", "EGFR (Homo sapiens, UniProt P00533)", "Biochem EGFR %Inhibition", 10.4),
    ("Cc1cn(C)cc1C=C1C(=O)Nc2ccc(S(=O)(=O)N3CCOCC3)cc21", "EGFR (Homo sapiens, UniProt P00533)", "Biochem EGFR %Inhibition", -24.1),
    ("Cc1c(Br)cc(Br)c2c1C(=Cc1c[nH]cn1)C(=O)N2", "EGFR (Homo sapiens, UniProt P00533)", "Biochem EGFR %Inhibition", 14.6),
    ("O=C1Nc2ccc(S(=O)(=O)Nc3ccc(C(F)(F)F)cc3)cc2C1=Cc1ccc([N+](=O)[O-])s1", "EGFR (Homo sapiens, UniProt P00533)", "Biochem EGFR %Inhibition", 1.4),
    ("COc1ccc(O)c(C=C2C(=O)Nc3ccc(I)cc32)c1", "EGFR (Homo sapiens, UniProt P00533)", "Biochem EGFR %Inhibition", 50.2),
    ("COc1cc(OC)c(OC)cc1C=C1C(=O)Nc2ccc(S(=O)(=O)N3CCOCC3)cc21", "EGFR (Homo sapiens, UniProt P00533)", "Biochem EGFR %Inhibition", 10.4),
    ("N#Cc1cccc(C=C2C(=O)Nc3ccc(CCCl)cc32)c1", "EGFR (Homo sapiens, UniProt P00533)", "Biochem EGFR %Inhibition", -19.6),
    ("CNS(=O)(=O)c1ccc2c(c1)C(=Cc1cc(C(C)C)c(OC)c(C(C)C)c1)C(=O)N2", "EGFR (Homo sapiens, UniProt P00533)", "Biochem EGFR %Inhibition", -18.7),
    ("O=C1Nc2c(Br)cc(Br)cc2C1=Cc1ccc(-c2ccccc2Cl)o1", "EGFR (Homo sapiens, UniProt P00533)", "Biochem EGFR %Inhibition", 10.4),
    ("CCN(CC)c1ccc(C=C2C(=O)Nc3ccc(S(=O)(=O)N4CCOCC4)cc32)cc1", "EGFR (Homo sapiens, UniProt P00533)", "Biochem EGFR %Inhibition", -0.5),
    ("COc1c([N+](=O)[O-])cc(C=C2C(=O)Nc3ccc(I)cc32)cc1C(C)(C)C", "EGFR (Homo sapiens, UniProt P00533)", "Biochem EGFR %Inhibition", 14.4),
    ("COc1c(I)cc(C=C2C(=O)Nc3ccc(S(=O)(=O)Nc4ccc(C(F)(F)F)cc4)cc32)cc1C(C)(C)C", "EGFR (Homo sapiens, UniProt P00533)", "Biochem EGFR %Inhibition", -32.2),
    ("CNS(=O)(=O)c1ccc2c(c1)C(=Cc1cc(C(C)(C)C)c(O)c(C(C)(C)C)c1)C(=O)N2", "EGFR (Homo sapiens, UniProt P00533)", "Biochem EGFR %Inhibition", 22.2),
    ("O=C1Nc2ccc(CCCl)cc2C1=Cc1ccccc1Sc1ccc(Cl)cc1", "EGFR (Homo sapiens, UniProt P00533)", "Biochem EGFR %Inhibition", 11.2),
    ("CC(C)c1cc(C=C2C(=O)Nc3c(Br)cc(Br)cc32)cc(C(C)C)c1O", "EGFR (Homo sapiens, UniProt P00533)", "Biochem EGFR %Inhibition", 1.4),
    ("COc1ccc(C=C2C(=O)Nc3c(Br)cc(Br)cc32)c(OC)c1", "EGFR (Homo sapiens, UniProt P00533)", "Biochem EGFR %Inhibition", 43.7),
]

----------
# Assayed Target: EGFR (Homo sapiens, UniProt P00533)
# Construct: Add 7 ug A431 cell lysate per well (EGFR source); endogenous in cells; host or cells: A431
# Assay Method Text: EGFR ELISA assay (in vitro kinase activity, EGFR captured from A431 cell lysate)
# Format: biochemical
# Set-up: concentration or dose not given beside the values

# Smiles Text, Unit Text, Biochem EGFR %Inhibition
rows = [
    ("CC(C)(C)c1cc(C=C2C(=O)Nc3ccc(S(=O)(=O)Nc4ccc(C(F)(F)F)cc4)cc32)c(O)c(C(C)(C)C)c1", "%", -44.6),
    ("Cc1[nH]c(C=C2C(=O)Nc3c(Br)cc(Br)cc32)c(Br)c1Br", "%", 59.9),
    ("CCc1ccc(C=C2C(=O)Nc3c(Br)cc(Br)cc32)s1", "%", 26.5),
]

----------
# Tested on: MET
# Assay Method Text: MET biochemical kinase assay
# Set-up: species or system human; concentration or dose not given beside the values
# Description: A met biochemical kinase assay may be performed for met generally as described above for other kinases by substituting that or the other kinases. […] Incorporation of phosphate into the captured receptors is detected with an anti-phosphotyrosine antibody conjugate with horse radish peroxidase using TMB as a substrate for colorimetric detection.
Each item that follows carries a reported Met Kinase % Inhibition.

# Smiles Text, Met Kinase % Inhibition
measured = [
    ("Cc1cc(C=C2C(=O)Nc3c(Br)cc(Br)cc32)cc(C)c1O", "64.1%"),
    ("CNS(=O)(=O)c1ccc2c(c1)C(=Cc1cc(O)c(O)c(Br)c1)C(=O)N2", "97.7%"),
    ("COc1cc(N(C)C)ccc1C=C1C(=O)Nc2ccc(I)cc21", "60.4%"),
    ("CCOC(=O)c1cc(C=C2C(=O)Nc3ccc(S(=O)(=O)NC)cc32)oc1C", "11.1%"),
    ("COc1cccc(C=C2C(=O)Nc3c(Br)cc(Br)cc32)c1OC", "16.5%"),
    ("O=C1Nc2ccc(S(=O)(=O)Nc3ccc(C(F)(F)F)cc3)cc2C1=Cc1ccc(Br)cc1", "51.7%"),
    ("COc1c(Br)cc(C=C2C(=O)Nc3ccc(Br)c(C)c32)cc1C(C)(C)C", "26.5%"),
    ("Cc1cc(C=C2C(=O)Nc3ccc(S(=O)(=O)N4CCOCC4)cc32)[nH]n1", "15.5%"),
    ("Cc1cc(C)c(C=C2C(=O)Nc3c(Br)cc(Br)cc32)[nH]1", "29.9%"),
    ("Cc1c(Br)ccc2c1C(=Cc1cc3c(cc1Cl)OCO3)C(=O)N2", "45.2%"),
    ("COc1ccc(Br)c(C=C2C(=O)Nc3ccc(S(=O)(=O)Nc4ccc(C(F)(F)F)cc4)cc32)c1O", "60.9%"),
    ("Cc1cc(C=C2C(=O)Nc3c(Br)cc(Br)cc32)sc1C", "85.0%"),
    ("CNS(=O)(=O)c1ccc2c(c1)C(=Cc1cc(OC)cc(Br)c1O)C(=O)N2", "92.9%"),
    ("O=C1Nc2ccc(I)cc2C1=Cc1cc(Br)cc(Br)c1O", "93.2%"),
    ("Cc1cc(C=C2C(=O)Nc3ccc(Br)c(C)c32)oc1C", "66.6%"),
    ("O=C1Nc2ccc(S(=O)(=O)N3CCOCC3)cc2C1=Cc1ccc2ccccc2c1O", "78.1%"),
    ("COc1cccc(OC)c1C=C1C(=O)Nc2ccc(CCCl)cc21", "8.8%"),
    ("O=C1Nc2ccc(I)cc2C1=Cc1cccc([N+](=O)[O-])c1", "53.4%"),
    ("O=C1Nc2ccc(CCCl)cc2C1=Cc1cc(Cl)cc(Cl)c1O", "93.4%"),
    ("O=C1Nc2ccc(S(=O)(=O)N3CCOCC3)cc2C1=Cc1ccccc1", "21.9%"),
    ("COc1cc(Br)c(O)c(C=C2C(=O)Nc3ccc(CCCl)cc32)c1", "77.9%"),
    ("COc1cccc(C=C2C(=O)Nc3ccc(CCCl)cc32)c1O", "74.7%"),
    ("COc1cc(OC)c(C=C2C(=O)Nc3ccc(S(=O)(=O)Nc4ccc(C(F)(F)F)cc4)cc32)c(OC)c1", "-4.5%"),
]
